- ASSAY_NAME: Approximate solubility of Compound I-1 (amorphous) in different solvents (manual dilution, visual observation)
- Type: physicochemical
- ASSAY_CONTEXT: Ethanol, ambient laboratory temperature
Residues, ends and D or L forms follow the SMILES beside them. *: point of attachment. Palmitoyl = CCCCCCCCCCCCCCCC(=O)*
REPORTED_METRIC: solubility

CCCCCCCCCCCCCCCC(=O)N1CCC[C@H]1C(=O)N1CCC[C@H]1C(=O)NCC(=O)N[C@@H](Cc1ccc(O)cc1)C(=O)[O-].[Na+] [Compound I-1 (Amorphous)] (Palmitoyl-PPGY-OH) yielded solubility of 50 to 100 mg/mL

====

- ASSAY_NAME: Approximate solubility of Compound I-2 (amorphous) at room temperature
- Format: physicochemical
- ASSAY_CONTEXT: Ethanol:H2O (90:10)
Residues, ends and D or L forms follow the SMILES beside them. *: point of attachment. Palmitoyl = CCCCCCCCCCCCCCCC(=O)*
REPORTED_METRIC: solubility

Note to self: solubility recorded for CCCCCCCCCCCCCCCC(=O)N1CCC[C@H]1C(=O)N1CCC[C@H]1C(=O)NCC(=O)N[C@@H](Cc1ccc(O)cc1)C(=O)[O-].[K+] [Compound I-2 (amorphous)] (Palmitoyl-PPGY-OH) was 25 to 50 mg/mL

====

- ASSAY_NAME: Approximate solubility of Compound I-1-Acid in different solvents (manual dilution, visual observation)
- Type: physicochemical
- ASSAY_CONTEXT: Tetrahydrofuran; room temperature
Residues, ends and D or L forms follow the SMILES beside them. *: point of attachment. Palmitoyl = CCCCCCCCCCCCCCCC(=O)*
REPORTED_METRIC: solubility

Per the records, this compound ( CCCCCCCCCCCCCCCC(=O)N1CCC[C@H]1C(=O)N1CCC[C@H]1C(=O)NCC(=O)N[C@@H](Cc1ccc(O)cc1)C(=O)O [Compound I-1-Acid] (Palmitoyl-PPGY-OH) ) has solubility equal to < 1000 µg/mL

====

- ASSAY_NAME: Approximate solubility of Compound I-1-Acid in different solvents (manual dilution, visual observation)
- Type: physicochemical
- ASSAY_CONTEXT: EtOH—H2O (3:1); room temperature
Residues, ends and D or L forms follow the SMILES beside them. *: point of attachment. Palmitoyl = CCCCCCCCCCCCCCCC(=O)*
REPORTED_METRIC: solubility

For CCCCCCCCCCCCCCCC(=O)N1CCC[C@H]1C(=O)N1CCC[C@H]1C(=O)NCC(=O)N[C@@H](Cc1ccc(O)cc1)C(=O)O [Compound I-1-Acid] (Palmitoyl-PPGY-OH) the compound record lists solubility as < 1000 µg/mL

====

- ASSAY_NAME: Approximate solubility of Compound I-1-Acid in different solvents (manual dilution, visual observation)
- Format: physicochemical
- ASSAY_CONTEXT: MeOH—H2O (1:1); room temperature
Residues, ends and D or L forms follow the SMILES beside them. *: point of attachment. Palmitoyl = CCCCCCCCCCCCCCCC(=O)*
REPORTED_METRIC: solubility

Summary for this compound, CCCCCCCCCCCCCCCC(=O)N1CCC[C@H]1C(=O)N1CCC[C@H]1C(=O)NCC(=O)N[C@@H](Cc1ccc(O)cc1)C(=O)O [Compound I-1-Acid] (Palmitoyl-PPGY-OH) : solubility is < 1 mg/mL

====

- ASSAY_NAME: Aqueous solubility of Compound I-1 in the presence of excipients
- Type: physicochemical
- ASSAY_CONTEXT: water with HPβCD 5% (w/v); approximate solubility by visual observation
Residues, ends and D or L forms follow the SMILES beside them. *: point of attachment. Palmitoyl = CCCCCCCCCCCCCCCC(=O)*
REPORTED_METRIC: solubility

For CCCCCCCCCCCCCCCC(=O)N1CCC[C@H]1C(=O)N1CCC[C@H]1C(=O)NCC(=O)N[C@@H](Cc1ccc(O)cc1)C(=O)[O-].[Na+] [Compound I-1] (Palmitoyl-PPGY-OH) the molecule record lists solubility as < 250 mg/mL

====

- ASSAY_NAME: Approximate solubility of Compound I-1 (amorphous) in different solvents (manual dilution, visual observation)
- Type: physicochemical
- ASSAY_CONTEXT: Isopropyl alcohol, ambient laboratory temperature
Residues, ends and D or L forms follow the SMILES beside them. *: point of attachment. Palmitoyl = CCCCCCCCCCCCCCCC(=O)*
REPORTED_METRIC: solubility

Field solubility (entry CCCCCCCCCCCCCCCC(=O)N1CCC[C@H]1C(=O)N1CCC[C@H]1C(=O)NCC(=O)N[C@@H](Cc1ccc(O)cc1)C(=O)[O-].[Na+] [Compound I-1 (Amorphous)] (Palmitoyl-PPGY-OH) ) reads 50 to 100 mg/mL

====

- ASSAY_NAME: Approximate solubility of Compound I-2 (amorphous) at room temperature
- Type: physicochemical
- ASSAY_CONTEXT: Acetonitrile
Residues, ends and D or L forms follow the SMILES beside them. *: point of attachment. Palmitoyl = CCCCCCCCCCCCCCCC(=O)*
REPORTED_METRIC: solubility

For record CCCCCCCCCCCCCCCC(=O)N1CCC[C@H]1C(=O)N1CCC[C@H]1C(=O)NCC(=O)N[C@@H](Cc1ccc(O)cc1)C(=O)[O-].[K+] [Compound I-2 (amorphous)] (Palmitoyl-PPGY-OH) the listed solubility is < 1000 µg/mL

====

- ASSAY_NAME: Approximate solubility of Compound I-1 (amorphous) in different solvents (manual dilution, visual observation)
- Format: physicochemical
- ASSAY_CONTEXT: Isopropyl acetate, ambient laboratory temperature
- Description: In this Example, approximate solubility tests of Compound I-1 (amorphous) were conducted in the different solvents at ambient laboratory temperature. The solubility was also tested by manual dilution combined with visual observation. In particular, a known amount of Compound I-1 was weighed and added to a vial. A known amount of solvent was gradually added to the vial with constant stirring. […]
Residues, ends and D or L forms follow the SMILES beside them. *: point of attachment. Palmitoyl = CCCCCCCCCCCCCCCC(=O)*
REPORTED_METRIC: solubility

solubility recorded for this molecule, CCCCCCCCCCCCCCCC(=O)N1CCC[C@H]1C(=O)N1CCC[C@H]1C(=O)NCC(=O)N[C@@H](Cc1ccc(O)cc1)C(=O)[O-].[Na+] [Compound I-1 (Amorphous)] (Palmitoyl-PPGY-OH) , is < 1 mg/mL

====

- ASSAY_NAME: Approximate solubility of Compound I-2 (amorphous) at room temperature
- Type: physicochemical
- ASSAY_CONTEXT: Methyl t-butyl ether
- Protocol: The solubility of Compound I-2 (amorphous) at room temperature was tested using a method similar to those described in Examples 4 and 5. The solubility test results are described in Table 6.
Residues, ends and D or L forms follow the SMILES beside them. *: point of attachment. Palmitoyl = CCCCCCCCCCCCCCCC(=O)*
REPORTED_METRIC: solubility

Record CCCCCCCCCCCCCCCC(=O)N1CCC[C@H]1C(=O)N1CCC[C@H]1C(=O)NCC(=O)N[C@@H](Cc1ccc(O)cc1)C(=O)[O-].[K+] [Compound I-2 (amorphous)] (Palmitoyl-PPGY-OH) . Reported solubility: < 1000 µg/mL

====

- ASSAY_NAME: Approximate solubility of Compound I-2 (amorphous) at room temperature
- Type: physicochemical
- ASSAY_CONTEXT: Ethanol
Residues, ends and D or L forms follow the SMILES beside them. *: point of attachment. Palmitoyl = CCCCCCCCCCCCCCCC(=O)*
REPORTED_METRIC: solubility

// field: solubility; key: CCCCCCCCCCCCCCCC(=O)N1CCC[C@H]1C(=O)N1CCC[C@H]1C(=O)NCC(=O)N[C@@H](Cc1ccc(O)cc1)C(=O)[O-].[K+] [Compound I-2 (amorphous)] (Palmitoyl-PPGY-OH) ; value = 50 to 100 mg/mL

====

- ASSAY_NAME: Approximate solubility of Compound I-2 (amorphous) at room temperature
- Type: physicochemical
- ASSAY_CONTEXT: Cyclohexane
Residues, ends and D or L forms follow the SMILES beside them. *: point of attachment. Palmitoyl = CCCCCCCCCCCCCCCC(=O)*
REPORTED_METRIC: solubility

So, CCCCCCCCCCCCCCCC(=O)N1CCC[C@H]1C(=O)N1CCC[C@H]1C(=O)NCC(=O)N[C@@H](Cc1ccc(O)cc1)C(=O)[O-].[K+] [Compound I-2 (amorphous)] (Palmitoyl-PPGY-OH) ? Its solubility was < 1000 µg/mL

====

- ASSAY_NAME: Approximate solubility of Compound I-1 (amorphous) in different solvents (manual dilution, visual observation)
- Assay type: physicochemical
- ASSAY_CONTEXT: Heptane, ambient laboratory temperature
Residues, ends and D or L forms follow the SMILES beside them. *: point of attachment. Palmitoyl = CCCCCCCCCCCCCCCC(=O)*
REPORTED_METRIC: solubility

According to the records, this molecule CCCCCCCCCCCCCCCC(=O)N1CCC[C@H]1C(=O)N1CCC[C@H]1C(=O)NCC(=O)N[C@@H](Cc1ccc(O)cc1)C(=O)[O-].[Na+] [Compound I-1 (Amorphous)] (Palmitoyl-PPGY-OH) displays solubility of < 1000 µg/mL
